system: p97 WT (Homo sapiens, UniProt P55072)
Sequence (P55072 whole entry): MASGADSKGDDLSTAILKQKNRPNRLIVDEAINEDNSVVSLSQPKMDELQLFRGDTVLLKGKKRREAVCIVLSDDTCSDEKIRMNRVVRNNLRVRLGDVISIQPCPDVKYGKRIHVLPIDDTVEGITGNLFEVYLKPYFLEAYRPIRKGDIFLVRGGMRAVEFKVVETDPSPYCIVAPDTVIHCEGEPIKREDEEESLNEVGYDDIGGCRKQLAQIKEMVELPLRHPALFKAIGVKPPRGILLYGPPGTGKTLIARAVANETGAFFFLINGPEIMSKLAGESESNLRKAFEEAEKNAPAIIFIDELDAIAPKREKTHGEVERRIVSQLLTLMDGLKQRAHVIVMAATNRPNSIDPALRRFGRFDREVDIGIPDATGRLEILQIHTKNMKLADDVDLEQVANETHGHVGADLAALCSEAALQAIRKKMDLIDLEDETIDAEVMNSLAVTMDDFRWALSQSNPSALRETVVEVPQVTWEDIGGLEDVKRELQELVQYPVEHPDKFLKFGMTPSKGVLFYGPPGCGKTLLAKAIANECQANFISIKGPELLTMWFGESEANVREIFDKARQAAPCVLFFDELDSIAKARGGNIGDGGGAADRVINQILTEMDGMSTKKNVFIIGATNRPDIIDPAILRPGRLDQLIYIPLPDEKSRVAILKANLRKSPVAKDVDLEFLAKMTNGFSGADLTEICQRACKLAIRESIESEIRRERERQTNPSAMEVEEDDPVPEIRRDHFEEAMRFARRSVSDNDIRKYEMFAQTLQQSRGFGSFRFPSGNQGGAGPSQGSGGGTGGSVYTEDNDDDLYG
experiment.summary: TR-FRET binding assay
observed.property: pKd
Notebook: values listed as pKd are -log10 of the concentration (mol/L).

Problem: Quick one: pKd of Nc1ncnc2c1ncn2[C@@H]1O[C@H](CO[P@](=O)(O)O[P@](=O)(O)O[P@@](=O)(O)S)[C@@H](O)[C@H]1O ?
Solution: 7.60

* * *

system: p97 A530T (Homo sapiens, UniProt P55072, A530T)
Sequence (P55072 whole entry A530T): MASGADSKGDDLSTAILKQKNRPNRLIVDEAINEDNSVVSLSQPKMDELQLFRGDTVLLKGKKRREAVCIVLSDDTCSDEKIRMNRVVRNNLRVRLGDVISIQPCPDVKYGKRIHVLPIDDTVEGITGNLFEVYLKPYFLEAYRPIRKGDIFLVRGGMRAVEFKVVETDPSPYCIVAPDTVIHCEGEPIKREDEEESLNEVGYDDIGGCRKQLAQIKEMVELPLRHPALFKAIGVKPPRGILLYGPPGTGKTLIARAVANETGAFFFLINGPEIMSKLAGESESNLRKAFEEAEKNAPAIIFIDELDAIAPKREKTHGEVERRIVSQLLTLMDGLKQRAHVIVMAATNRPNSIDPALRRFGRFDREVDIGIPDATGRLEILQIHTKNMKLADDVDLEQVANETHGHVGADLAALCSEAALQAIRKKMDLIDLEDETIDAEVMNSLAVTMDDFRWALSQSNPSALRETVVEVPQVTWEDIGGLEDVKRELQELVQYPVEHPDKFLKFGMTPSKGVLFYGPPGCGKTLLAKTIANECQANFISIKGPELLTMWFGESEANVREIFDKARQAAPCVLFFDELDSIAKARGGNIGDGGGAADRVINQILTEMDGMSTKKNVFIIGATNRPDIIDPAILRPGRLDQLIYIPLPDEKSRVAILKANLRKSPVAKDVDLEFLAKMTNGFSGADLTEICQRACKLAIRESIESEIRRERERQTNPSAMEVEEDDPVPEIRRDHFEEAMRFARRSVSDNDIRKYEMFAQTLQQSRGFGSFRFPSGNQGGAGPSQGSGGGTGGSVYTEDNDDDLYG
experiment.summary: ATPase activity assay, recombinant p97 A530T
Type: biochemical
condition.description: read-out: IC50 ATPase activity; A530T p97
observed.property: IC50
Reply with the number, then its unit.

Problem: Quick one: IC50 of Nc1ncnc2c1ncn2[C@@H]1O[C@H](COP(=O)(O)OP(=O)(O)O)[C@@H](O)[C@H]1O [ADP] ?
Solution: 24.6 µM

* * *

system: p97 A530T (Homo sapiens, UniProt P55072, A530T)
experiment.summary: TR-FRET binding assay
observed.property: Kd (nM)
The response must be a number in nM with no trailing unit.

Problem: Quick one: Kd of Nc1ncnc2c1ncn2[C@@H]1O[C@H](CO[P@](=O)(O)O[P@](=O)(O)O[P@@](=O)(O)S)[C@@H](O)[C@H]1O ?
Solution: 140

* * *

system: p97 WT (Homo sapiens, UniProt P55072)
experiment.summary: ATPase activity assay, recombinant p97 WT
Format: biochemical
observed.property: pIC50
Notebook: values listed as pIC50 are -log10 of the concentration (mol/L).

Problem: Quick one: pIC50 of Nc1ncnc2c1ncn2[C@@H]1O[C@H](CO[P@](=O)(O)O[P@](=O)(O)O[P@@](=O)(O)S)[C@@H](O)[C@H]1O ?
Solution: 6.61

* * *

system: p97 A530T (Homo sapiens, UniProt P55072, A530T)
experiment.summary: TR-FRET binding assay
condition.description: read-out: apparent Kd; A530T p97, TR-FRET
observed.property: Kd (µM)
The response must be a number in µM with no trailing unit.

Problem: Quick one: Kd of Nc1ncnc2c1ncn2[C@@H]1O[C@H](COP(=O)(O)OP(=O)(O)O)[C@@H](O)[C@H]1O [ADP] ?
Solution: 3.8

* * *

system: UniProtKB P55072
experiment.summary: TR-FRET binding assay
condition.description: read-out: apparent Kd; WT p97, TR-FRET, non-linear regression
observed.property: pKd
Notebook: values listed as pKd are -log10 of the concentration (mol/L).

Problem: Quick one: pKd of Nc1ncnc2c1ncn2[C@@H]1O[C@H](COP(=O)(O)OP(=O)(O)O)[C@@H](O)[C@H]1O ?
Solution: 6.22
